tested target: T1, human PD-L1 expressed on Raji cells (human, UniProt Q9NZQ7 19-290)
T1 construct: whole, on cells; also called Raji-PDL1; PDL1 protein expressed on Raji cells
T1 sequence (Q9NZQ7 19-290): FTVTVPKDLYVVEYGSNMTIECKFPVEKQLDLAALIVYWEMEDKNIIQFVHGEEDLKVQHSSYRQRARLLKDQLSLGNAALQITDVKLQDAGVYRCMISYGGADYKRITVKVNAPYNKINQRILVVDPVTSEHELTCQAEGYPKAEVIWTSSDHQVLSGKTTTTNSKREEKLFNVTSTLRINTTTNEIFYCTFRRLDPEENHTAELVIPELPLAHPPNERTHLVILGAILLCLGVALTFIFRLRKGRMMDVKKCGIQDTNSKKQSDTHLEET
protocol text: flow cytometry competition on Raji-PDL1 cells, competitor PD1-Fc
// IC50 lookup, one value per entry

binder	unit abbreviation	IC50
PDL1-1v19 (VHH, Humanized PDL1-1, His-tagged) VHH: QVQLVESGGGLVKPGGSLRLSCAASGFTVSNSAVSWARQAPGKGLEWVSLIDSNRNTVYAQSVRGRFTISRDNAKNSVYLQMNSLRAEDTAVYYCAKGIWGSTLWGQGTQVTVSS	µg/mL	2.59
PDL1-1v14 (VHH, Humanized PDL1-1, His-tagged) VHH: QVQLVESGGGLVKPGGSLRLSCAASGFTVSNSAVSWARQAPGKGLEWVSLIDSNRNTVYAQSVRGRFTISRDNVKNSVYLQMNSLRAEDTAVYYCAKGIWGSTLWGQGTTVTVSS	µg/mL	4.58
PDL1-1 (VHH, Alpaca nanobody expressed in E. coli, purified on HisTrap and detected with anti-His antibody; also called PD-L1-1 heavy chain single-domain antibody; P1) VHH: QVQLQESGGGLVQPGGSLTLSCAASGFTVSNSAVSWARQAPGKGLEWVSLIDSNRNTVYAQSVRGRFTISRDNVKNTVYLQMNSLKPEDTAVYYCAKGIWGSTLTGQGTQVTVSS	µg/mL	0.477
PDL1-1v18 (VHH, Humanized PDL1-1, His-tagged) VHH: QVQLVESGGGLVKPGGSLRLSCAASGFTVSNSAVSWARQAPGKGLEWVSLIDSNRNTVYAQSVRGRFTISRDNAKNSVYLQMNSLRAEDTAVYYCAKGIWGSTLTGQGTTVTVSS	µg/mL	0.694
PDL1-1v11 (VHH, Humanized PDL1-1, His-tagged) VHH: QVQLQESGGGLVKPGGSLRLSCAASGFTVSNSAVSWARQAPGKGLEWVSLIDSNRNTVYAQSVRGRFTISRDNAKNSVYLQMNSLRAEDTAVYYCAKGIWGSTLWGQGTTVTVSS	µg/mL	2.48
PDL1-1v8 (VHH, Humanized PDL1-1, His-tagged) VHH: EVQLLESGGGLVQPGGSLRLSCAASGFTVSNSAVSWARQAPGKGLEWVSLIDSNRNTVYAQSVRGRFTISRDNSKNTVYLQMNSLRAEDTAVYYCAKGIWGSTLTGQGTTVTVSS	µg/mL	0.458
